Taken from the supplement of paper PMC7366291.

- Test system: Danio rerio Tg(wt1b:EGFP) embryo, pronephros
- Assay name: pronephric angle neck segment to proximal convoluted tubule (mean of left and right), fold change vs DMSO control; higher = larger pronephric angle
- Assay setup: 25 µM; exposure: 24-48 hpf
Counter-ions that a name gives are not always drawn.
The reader will find reported pronephric angle neck segment values listed item by item below.
I only need the number, thanks.

Entry under review: CCOc1ccccc1OCC1CNCCO1 (stereo not drawn) [Viloxazine hydrochloride] . Reported pronephric angle neck segment? 1.04

Which pronephric angle neck segment is reported for this compound? O=C1CN(/N=C/c2ccc(-c3ccc([N+](=O)[O-])cc3)o2)C(=O)N1 [Dantrolene sodium salt] 1.02

Please give the measured pronephric angle neck segment for this compound: `CN1CCN(C2=Nc3cc(Cl)ccc3Nc3ccccc32)CC1` 0.975

Please look up its pronephric angle neck segment: NC(=O)c1ccc[n+]([C@@H]2O[C@H](COP(=O)([O-])OP(=O)(O)OC[C@H]3O[C@@H](n4cnc5c(N)ncnc54)[C@H](O)[C@@H]3O)[C@@H](O)[C@H]2O)c1 [Nadide] 0.949

Which pronephric angle neck segment value is on record for CC(C)(S)C(N)C(=O)O (racemic) ? 0.996

New cases:
Requested field: pronephric angle neck segment. Item: Clc1ccc(C(Cn2ccnc2)OCc2c(Cl)cccc2Cl)c(Cl)c1 (stereo not drawn) 1.64

Which pronephric angle neck segment is listed for CCn1cc(C(=O)O)c(=O)c2cc(F)c(N3CCNC(C)C3)c(F)c21 (stereo not drawn) [Lomefloxacin hydrochloride] ? 1.12

pronephric angle neck segment lookup needed for `Clc1ccc(Nc2nnc(Cc3ccncc3)c3ccccc23)cc1` , thanks. 1.02

----------
# pronephric angle neck segment listing for each entry below
- Tested on: Danio rerio Tg(wt1b:EGFP) embryo, pronephros
- Assay name: pronephric angle neck segment to proximal convoluted tubule (mean of left and right), fold change vs DMSO control; higher = larger pronephric angle
- Assay setup: 25 µM; exposure: 24-48 hpf
Where a name gives a salt, the structure may show the parent alone.
Please reply with the number alone, leaving off any unit.

Guide cases for pronephric angle neck segment, answers given:
Please look up its pronephric angle neck segment: Nc1ccc(S(N)(=O)=O)cc1 [Sulfanilamide] 0.996

What measured pronephric angle neck segment goes with NC[C@H]1O[C@H](O[C@H]2[C@H](O[C@@H]3O[C@H](CO)[C@@H](O)[C@H]3O)[C@@H](O)[C@H](N)C[C@@H]2N)[C@H](N)[C@@H](O)[C@@H]1O [Ribostamycin sulfate salt] ? 1.06

Query (compound): `O=C(O)CCCC[C@@H]1SC[C@@H]2NC(=O)N[C@@H]21` ; field requested: pronephric angle neck segment 1.02

pronephric angle neck segment lookup needed for `CCOC(=O)c1ccc(N)cc1` , thanks. 1.02

Using the record for Clc1ccc(CCC(Cn2ccnc2)Sc2c(Cl)cccc2Cl)cc1 (stereo not drawn) [Butoconazole nitrate] , report its pronephric angle neck segment. 1.25

More entries:
Using the record for `CNC(=O)c1c(I)c(C(=O)NCC(=O)Nc2c(I)c(C(=O)O)c(I)c(C(=O)NCCO)c2I)c(I)c(N(C)C(C)=O)c1I` , report its pronephric angle neck segment. 0.982

Quick check: pronephric angle neck segment of `CN(C)c1cc(NC(=O)CNC(C)(C)C)c(O)c2c1C[C@H]1C[C@H]3[C@H](N(C)C)C(O)=C(C(N)=O)C(=O)[C@@]3(O)C(O)=C1C2=O` ? 0.954

Can you look up the measured pronephric angle neck segment of OC(c1cc(C(F)(F)F)nc2c(C(F)(F)F)cccc12)C1CCCCN1 (stereo not drawn) [Mefloquine hydrochloride] for me? 1.02

----------
fraction of imaged embryos annotated as normal kidney values for the compounds below.
- Test system: Danio rerio Tg(wt1b:EGFP) embryo, pronephros
- Assay name: fraction of imaged embryos annotated as normal kidney; higher = less nephrotoxic; extreme values may be limits of the assay
- Assay setup: 25 µM; exposure: 24-48 hpf
Where a name gives a salt, the structure may show the parent alone.
Just the number, please.

GET /values?readout=fraction of imaged embryos annotated as normal kidney&item= Cc1ccc(C(=O)c2ccc(CC(=O)O)n2C)cc1 [Tolmetin sodium salt dihydrate] 0.333

Need fraction of imaged embryos annotated as normal kidney, item CN(C)CCc1c[nH]c2ccc(Cn3cncn3)cc12 [Rizatriptan benzoate] 0.5

What does the data say about its fraction of imaged embryos annotated as normal kidney? Entry: CN(C)CCOC1=Cc2ccccc2Sc2ccc(Cl)cc21 [Zotepine] 0.75

Param item = CC(C[N+](C)(C)C)OC(N)=O (stereo not drawn) [Bethanechol chloride] ; retrieve measured fraction of imaged embryos annotated as normal kidney. 0.833

Form field: reported fraction of imaged embryos annotated as normal kidney of CC(C)(C)NCC(O)COc1cccc2c1CCC(=O)N2 (stereo not drawn) [Carteolol hydrochloride] 0.917

What fraction of imaged embryos annotated as normal kidney value was documented for this compound, COc1c(O[C@@H]2O[C@H](CO)[C@@H](O)[C@H](O)[C@H]2O)cc2c(c1OC)-c1ccc(SC)c(=O)cc1[C@@H](NC(C)=O)CC2 [Thiocolchicoside] ? 0.833

Item CCOC(=O)C1=C(C)NC(C)=C(C(=O)OC)C1c1cccc(Cl)c1Cl (stereo not drawn) [Felodipine] has what recorded fraction of imaged embryos annotated as normal kidney? 0

Return reported fraction of imaged embryos annotated as normal kidney; argument: CCCc1ncc(C[n+]2ccccc2C)c(N)n1 [Amprolium hydrochloride] 1

----------
Below, each entry is listed with its recorded glomerular separation.
- System: Danio rerio Tg(wt1b:EGFP) embryo, pronephros
- Assay name: glomerular separation, fold change vs DMSO control; higher = glomeruli further apart (abnormal)
- Assay setup: 25 µM; exposure: 24-48 hpf
Where a name gives a salt, the structure may show the parent alone.
Answer with the value's number alone.

Field: example entries. Status: answers known.
Entry CCN(CC)CCNC(=O)c1cc(Cl)c(N)cc1OC [Metoclopramide monohydrochloride] has what glomerular separation? 0.868

Look up glomerular separation for this compound: OCCN1CCN(CCCN2c3ccccc3Sc3ccc(Cl)cc32)CC1 [Perphenazine] 0.838

Continuing:
What value of measured glomerular separation is listed for Clc1ccc2nsnc2c1NC1=NCCN1 [Tizanidine hydrochloride] ? 1.02

Would you kindly share the measured glomerular separation for CCN1C(=O)NC(c2ccccc2)C1=O (stereo not drawn) [Ethotoin] ? 0.796

Please give the measured glomerular separation for this compound: CN(C/C=C/C#CC(C)(C)C)Cc1cccc2ccccc12 [Terbinafine] 1.03

# input compound: C#C[C@]1(O)CC[C@H]2[C@@H]3CCc4cc(O)ccc4[C@H]3CC[C@@]21C [Ethinylestradiol] ; wanted: its glomerular separation 1.64

Recorded glomerular separation for COc1cc2nc(N3CCN(C(=O)c4ccco4)CC3)nc(N)c2cc1OC [Prazosin hydrochloride] , please? 0.618

Entry CNCCC=C1c2ccccc2C=Cc2ccccc21 [Norcyclobenzaprine] : reported glomerular separation = ? 1.12

What value of glomerular separation has been reported for the following compound? CN(C)CCCO[C@@H]1[C@H]2OC(C)(C)O[C@H]2O[C@@H]1[C@H](O)CO [Amiprilose hydrochloride] 1.12

Name the recorded glomerular separation for C=CCc1ccccc1OCC(O)CNC(C)C (stereo not drawn) [Alprenolol hydrochloride] . 0.823

So what does the record say about glomerular separation for NCCc1ccc(O)c(O)c1 [Dopamine hydrochloride] ? 1.08

Report glomerular separation for COc1cnc(NS(=O)(=O)c2ccc(N)cc2)nc1 [Sulfameter] please. 0.925

Quick check: glomerular separation of CC(=O)CC(c1ccc([N+](=O)[O-])cc1)c1c(O)c2ccccc2oc1=O (stereo not drawn) [Acenocoumarol] ? 0.834

What value of glomerular separation has been reported for the following compound? CN(C)CC/C=C1/c2ccccc2COc2ccc(CC(=O)O)cc21 [Olopatadine hydrochloride] 0.914

Report glomerular separation for CC(=O)/N=c1/sc(S(N)(=O)=O)nn1C [Methazolamide] please. 0.898

Item COc1ccc([C@@H]2Sc3ccccc3N(CCN(C)C)C(=O)[C@@H]2OC(C)=O)cc1 [Diltiazem hydrochloride] has what recorded glomerular separation? 0.914

Please look up its glomerular separation: CC[C@H](C)C(=O)O[C@H]1C[C@@H](C)C=C2C=C[C@H](C)[C@H](CC[C@@H]3C[C@@H](O)CC(=O)O3)[C@H]21 [Lovastatin] 5.64

Which glomerular separation value belongs to COc1ccc(Cl)cc1C(=O)NCCc1ccc(S(=O)(=O)NC(=O)NC2CCCCC2)cc1 [Glibenclamide] ? 0.804

----------
Documented fraction of imaged embryos annotated as normal kidney across a set of compounds
- System: Danio rerio Tg(wt1b:EGFP) embryo, pronephros
- Assay name: fraction of imaged embryos annotated as normal kidney; higher = less nephrotoxic; extreme values may be limits of the assay
- Assay setup: 25 µM; exposure: 24-48 hpf
Counter-ions that a name gives are not always drawn.
Answer with a bare number; do not write a unit.

What reported fraction of imaged embryos annotated as normal kidney corresponds to CCOC(=O)Nc1ccc2c(c1)N(C(=O)CCN1CCOCC1)c1ccccc1S2 [Moricizine hydrochloride] on Danio rerio Tg(wt1b:EGFP) embryo, pronephros? 0.833

API: value(readout= fraction of imaged embryos annotated as normal kidney, system= Danio rerio Tg(wt1b:EGFP) embryo, pronephros, query= CC(C(=O)O)c1ccc2c(c1)Cc1cccnc1O2 (stereo not given) ) 0.583

What reported fraction of imaged embryos annotated as normal kidney corresponds to N#Cc1cc(NC(=O)C(=O)O)c(Cl)c(NC(=O)C(=O)O)c1 [Lodoxamide] on Danio rerio Tg(wt1b:EGFP) embryo, pronephros? 0.917

Given the entry `COc1cc(Cc2cnc(N)nc2N)cc(OC)c1OC` , what fraction of imaged embryos annotated as normal kidney was observed with Danio rerio Tg(wt1b:EGFP) embryo, pronephros? 0.727

Write down the reported fraction of imaged embryos annotated as normal kidney of OC(CCN1CCCCC1)(c1ccccc1)C1CC2C=CC1C2 (stereo not given) [Biperiden hydrochloride] , test system: Danio rerio Tg(wt1b:EGFP) embryo, pronephros. 0.917
